List of IC50 values.
Molecular target: IDO1 (Homo sapiens, UniProt P14902)
Sequence (P14902 whole entry): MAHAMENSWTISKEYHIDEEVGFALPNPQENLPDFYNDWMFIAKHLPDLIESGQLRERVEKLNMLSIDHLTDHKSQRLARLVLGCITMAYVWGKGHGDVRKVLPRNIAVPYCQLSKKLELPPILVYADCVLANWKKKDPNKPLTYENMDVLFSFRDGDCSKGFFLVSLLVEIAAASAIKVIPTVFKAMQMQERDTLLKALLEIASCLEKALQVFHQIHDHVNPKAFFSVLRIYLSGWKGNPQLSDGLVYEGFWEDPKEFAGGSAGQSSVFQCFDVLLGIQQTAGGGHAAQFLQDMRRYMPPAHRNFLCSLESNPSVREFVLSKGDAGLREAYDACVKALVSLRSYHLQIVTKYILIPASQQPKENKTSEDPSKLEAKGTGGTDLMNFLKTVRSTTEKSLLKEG
Experiment: IDO1 Cellular Assay in HeLa Cells Stimulated with IFNγ
Format: cell-based
Details: read-out: HeLa Cell Potency, IC50

Molecule	IC50
O=C(Cn1nc(C(=O)N2CCC(O)CC2)c2c1CCC2)N1CCN(C2CCCc3ccccc32)CC1 (single isomer, unassigned) [Example 430]	184 nM
Cc1cccc(N2CCN(C(=O)Cn3nc(C(=O)N4CCN(CC(F)(F)F)CC4)c4c3CCC4)CC2)c1C [Example 158]	3.06 nM
Cc1cccc(N2CCN(C(=O)Cn3nc(C(=O)N4C[C@@H](C)N(C)[C@@H](C)C4)c4c3C[C@H]3C[C@@H]43)CC2)c1C [Example 235]	3.1 nM
Cc1c(N2CCN(C(=O)Cn3nc(C(=O)N4C[C@@H](C)O[C@@H](C)C4)c4c3CCC4)CC2)ccc(F)c1F [Example 49]	13.5 nM
Cc1cccc(N2CCN(C(=O)Cn3nc(C(=O)N4CC5CC(C4)C5O)c4c3CCC4)CC2)c1C (centres unmarked) [Example 306]	55.4 nM
Cc1cccc(N2CCN(C(=O)Cn3nc(C(=O)N4CC[C@@H](O)[C@H](C)C4)c4c3CCC4)CC2)c1C [Example 108]	1.79 nM
CNC(=O)C1CCN(C(=O)c2nn(CC(=O)N3CCN(c4cccc(C)c4C)CC3)c3c2CCC3)CC1 [Example 136]	21.2 nM
Cc1cccc(N2CCN(C(=O)Cn3nc(C(=O)N4CCC(OCCO)CC4)c4c3CCC4C(F)F)CC2)c1C (single isomer, unassigned) [Example 13]	31 nM
Cc1cccc(N2CCN(C(=O)Cn3nc(C(=O)N4CCOC(CO)C4)c4c3CCC4)CC2)c1C (centres unmarked) [Example 155]	28.5 nM
O=C(Cn1nc(C(=O)N2CCC(O)CC2)c2c1CCC2)N1CCN(C2CCc3ccccc32)CC1 (single isomer, unassigned) [Example 437]	810 nM
Cc1cccc(N2CCN(C(=O)Cn3nc(C(=O)N4CCN(CC(N)=O)CC4)c4c3CCCC4)CC2)c1C [Example 454]	2.82 nM
Cc1cccc(N2CCN(C(=O)Cn3nc(C(=O)N4CCOCC4CO)c4c3C[C@H]3C[C@@H]43)CC2)c1C (some centres unmarked) [Example 274]	6.37 nM
Cc1cccc(N2CCN(C(=O)Cn3nc(C(=O)N4CCN(C(=O)CO)CC4)c4c3CCCC4)CC2)c1C [Example 480]	8.74 nM
Cc1cccc(N2CCN(C(=O)Cn3nc(C(=O)N4CCC(O)C(F)C4)c4c3CCC4)C3(CC3)C2)c1C (single isomer, unassigned) [Example 328]	6.86 nM

The origin of these recorded values is patent US12264134B2.
